system: SARS-CoV-2; test: microbe, parasite or virus in culture; conditions: Severe acute respiratory syndrome coronavirus 2, Vero C1008, 48 h, read-out: pIC50 (converted)
# reported IC50; entries follow

Examples with answers:
[[record]]
compound = "COc1cc(Nc2ncc3c(n2)-c2ccc(Cl)cc2C(c2c(F)cccc2OC)=NC3)ccc1C(=O)O"
result = "> 20 µM"

[[record]]
compound = "O=C(Nc1ccccc1Br)N[C@H]1CCN(c2ccc(C(F)(F)F)cn2)C1"
result = "> 20 µM"

[[record]]
compound = "O=C(Nc1ccccc1)OCC(CN1CCCCC1)OC(=O)Nc1ccccc1 (centres undefined)"
result = "15.1 µM"

[[record]]
compound = "CCn1c(=O)c2ccccc2n(-c2cccc([N+](=O)[O-])c2)c1=O"
result = "> 20 µM"

[[record]]
compound = "ClCCN(Cc1ccccc1)Cc1ccccc1"
result = "> 20 µM"

[[record]]
compound = "CC(=O)OCC(=O)[C@@]1(O)CC[C@H]2[C@@H]3CCC4=CC(=O)C=C[C@]4(C)[C@@]3(F)[C@@H](O)C[C@@]21C [ISOFLUPREDONE ACETATE]"
result = "> 20 µM"

[[record]]
compound = "CCC1(c2c[nH]cn2)Cc2ccccc2C1"
result = "> 20 µM"

[[record]]
compound = "O=C1CCCN1CC#CCN1CCCC1"
result = "> 20 µM"


Lookup: Give measured IC50 for `COc1cc2nccc(Oc3ccc(NC(=O)c4cn(C(C)C)c(=O)n(-c5ccc(F)cc5)c4=O)cc3F)c2cc1OC` (SARS-CoV-2).
Found: > 20 µM

---

test: in vitro; conditions: chlorocebus sabaeus, Vero E6 (Vero C1008) cells, CC50
Value type: CC50 at 48 h (µM)
Reply numerically in µM, unit not repeated.

Recorded CC50 at 48 h, per entry:
[[record]]
molecule = "O=C(NC1CN2CCC1CC2)c1cc(Cl)cc2c1OC1CCCCC21 (stereo unspecified)"
value_type = "CC50 at 48 h"
reading_unit = "µM"
recorded_number = 21.6

[[record]]
molecule = "CCCCCCC(C)(C)c1cc(O)c([C@H]2CC(=O)[C@H]3C[C@@H]2C3(C)C)c(OC(=O)/C=C/C(=O)O)c1 [PRS-211375]"
value_type = "CC50 at 48 h"
reading_unit = "µM"
recorded_number = 7.67

[[record]]
molecule = "Clc1ccc(-c2nn(Cc3ccccc3)c3c2CCNCC3)cc1 [JNJ-18038683 FREE BASE]"
value_type = "CC50 at 48 h"
reading_unit = "µM"
recorded_number = 14.6

[[record]]
molecule = "CC(=O)O[C@H]1CC[C@@]2(C)C(=CC[C@@H]3[C@@H]2CC[C@]2(C)C(c4cccnc4)=CC[C@@H]32)C1 [ABIRATERONE ACETATE]"
value_type = "CC50 at 48 h"
reading_unit = "µM"
recorded_number = 9.89

[[record]]
molecule = "COc1ccc([C@@H](Cc2ccncc2)c2ccccc2)cc1OC1CCCC1"
value_type = "CC50 at 48 h"
reading_unit = "µM"
recorded_number = 23.4

[[record]]
molecule = "CC(C)[C@H](C(=O)Nc1ccc(C(=O)NO)cc1)c1ccccc1 [AR-42]"
value_type = "CC50 at 48 h"
reading_unit = "µM"
recorded_number = 0.851


Lookup: Specify CC50 at 48 h for NCC[C@H](Oc1ccc(C(F)(F)F)cc1)c1ccccc1 [SEPROXETINE] and stop.
Found: 10.6

Lookup: # return recorded CC50 at 48 h for entry `COC(=O)N[C@H](C(=O)N1CCC[C@H]1c1nc(-c2ccc3cc(-c4ccc5[nH]c([C@@H]6CCCN6C(=O)[C@@H](NC(=O)OC)C(C)C)nc5c4)ccc3c2)c[nH]1)C(C)C`
Found: 12.7

---

Measured CC50 at 48 h values are reported for all entries that follow.
assay: in vitro; conditions: chlorocebus sabaeus, Vero E6 (Vero C1008) cells, pCC50
Return type: number; implicit unit µM.

[[record]]
compound = "CN1CCN(CCCN2c3ccccc3Sc3ccc(C(F)(F)F)cc32)CC1"
recorded_number = 7.94

[[record]]
compound = "CCCCN(CCCC)CCC(O)c1cc2c(Cl)cc(Cl)cc2c2cc(C(F)(F)F)ccc12 (centres undefined)"
recorded_number = 11.5

[[record]]
compound = "Cc1ccc(C(=O)N(CCCN)[C@@H](c2oc3cc(Cl)ccc3c(=O)c2Cc2ccccc2)C(C)C)cc1"
recorded_number = 2.63


Please turn your attention to the following entry.
Lookup: Supply CC50 at 48 h value. Item: `CCCOc1ccc(C(=O)CCN2CCCCC2)cc1`
Found: 31.6

---

system: SARS-CoV-2; test: microbe, parasite or virus in culture; format: functional, organism-based, Chlorocebus sabaeus, Vero C1008; conditions: Severe acute respiratory syndrome coronavirus 2, Vero C1008, 48 h; read-out: pIC50 (converted)
Value type: IC50

Lookup: Supply IC50 value. Item: CCN(CC)CCNC(=O)c1cc(Cl)c(NC(=O)COc2ccc(Cl)cc2)cc1OC [CLOXACEPRIDE]
Found: > 100 µM

Lookup: Input COc1ccc2c(c1)N(CC(C)CN(C)C)c1ccccc1S2 (centres undefined) , output reported IC50.
Found: > 100 µM

---

experiment: in vitro; settings: chlorocebus sabaeus, Vero E6 (Vero C1008) cells, pCC50
# CC50 at 48 h per record follows

Lookup: Identify measured CC50 at 48 h associated with `CCC1=C[C@@H]2CN(C1)Cc1c([nH]c3ccccc13)[C@@](C(=O)OC)(c1cc3c(cc1OC)N(C)[C@H]1[C@@](O)(C(=O)OC)[C@H](OC(C)=O)[C@]4(CC)C=CCN5CC[C@]31[C@@H]54)C2`
Found: 14.5 µM

Lookup: Item `CCCSc1ccccc1N1CCN(CCCCn2c(=O)[nH]c3ccccc3c2=O)CC1` : provide CC50 at 48 h
Found: 7.24 µM

Lookup: Give reported CC50 at 48 h value for Cc1c(-c2ccc(O)cc2)n(Cc2ccc(OCCN3CCCCC3)cc2)c2ccc(O)cc12 [PIPENDOXIFENE]
Found: 4.57 µM

---

Quick reference: CC50 at 48 h of the listed items.
test: in vitro; conditions: chlorocebus sabaeus, Vero E6 (Vero C1008) cells, CC50
API: value field is a number in µM; no unit string.

[[record]]
compound = "CCCCCCCCNC(C)C(O)c1ccc(SC(C)C)cc1 (stereo not drawn)"
recorded_number = 3.27

[[record]]
compound = "CNCc1ccc(C)c(NC(=O)c2ccc(Nc3nc(-c4ccccc4)c4ccccc4n3)cc2)c1"
recorded_number = 3.09

[[record]]
compound = "OC(Cn1cncn1)(Cn1cnc(/C=C/c2ccc(OCC(F)(F)C(F)F)cc2)n1)c1ccc(F)cc1F (stereo not drawn)"
recorded_number = 25.7

[[record]]
compound = "CN(C(=O)CN(CCO)CC(=O)N(C)C(C)(C)Cc1ccccc1)C(C)(C)Cc1ccccc1"
recorded_number = 26.3

[[record]]
compound = "O=C1NC2CCCCN2C12CCN(CCCN1c3ccccc3CCc3ccc(Cl)cc31)CC2 (stereo not drawn)"
recorded_number = 8.13

[[record]]
compound = "CC(CN1c2ccccc2Sc2ccccc21)N(C)C (stereo not drawn)"
recorded_number = 33.1


Lookup: Consider the compound `CN(C)CCCN1c2ccccc2CCc2ccc(Cl)cc21` and give its recorded CC50 at 48 h.
Found: 16

Lookup: // fetch CC50 at 48 h given entry `O=C(c1ccc(F)cc1)C1CCN(CCCn2c(=O)[nH]c3cc(Cl)ccc32)CC1`
Found: 32.4

---

Attribute: IC50
test system: SARS-CoV-2; experiment: microbe, parasite or virus in culture; conditions: Severe acute respiratory syndrome coronavirus 2, Vero C1008, 48 h, read-out: pIC50 (converted)

[[record]]
compound = "CC(NCCC(c1ccccc1)c1ccccc1)c1ccccc1 (stereo unspecified) [FENDILINE]"
target_entity = "SARS-CoV-2"
result = "> 20 µM"

[[record]]
compound = "O=c1[nH]c(=O)c(Cc2cccc(C(F)(F)F)c2)c([C@H]2CC[C@H](c3ccccc3)CC2)[nH]1 [MIRICORILANT]"
target_entity = "SARS-CoV-2"
result = "> 20 µM"

[[record]]
compound = "CCCCCCCCCC(=O)N[C@@H](Cc1c[nH]c2ccccc12)C(=O)N[C@H](CC(N)=O)C(=O)N[C@@H](CC(=O)O)C(=O)N[C@@H]1C(=O)NCC(=O)N[C@@H](CCCN)C(=O)N[C@@H](CC(=O)O)C(=O)N[C@H](C)C(=O)N[C@@H](CC(=O)O)C(=O)NCC(=O)N[C@H](CO)C(=O)N[C@@H]([C@H](C)CC(=O)O)C(=O)N[C@@H](CC(=O)c2ccccc2N)C(=O)O[C@@H]1C"
target_entity = "SARS-CoV-2"
result = "> 20 µM"

[[record]]
compound = "COc1cc(CC(=O)NCCCc2ccc(C)c(C)c2)ccc1OCCN [DAVASAICIN]"
target_entity = "SARS-CoV-2"
result = "> 20 µM"

[[record]]
compound = "CCOC(=O)[N-]c1c[n+](N2CCOCC2)no1 [MOLSIDOMINE]"
target_entity = "SARS-CoV-2"
result = "> 20 µM"


Please turn your attention to the following entry.
Lookup: Look up and report IC50, with SARS-CoV-2 as system, for CCC(=O)c1ccc2c(c1)N(CCCN1CCN(CCO)CC1)c1ccccc1S2 [CARPHENAZINE]
Found: > 100 µM
